B1: LINE1-full (parent)
chain: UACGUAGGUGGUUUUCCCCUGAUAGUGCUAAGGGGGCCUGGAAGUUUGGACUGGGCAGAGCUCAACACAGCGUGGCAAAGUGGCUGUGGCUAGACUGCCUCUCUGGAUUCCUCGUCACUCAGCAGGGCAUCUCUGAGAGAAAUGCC

variants of: B1; test: self-cleavage, relative activity (ratio to wild type); higher = more cleavage; in vitro, sequencing; the parent is a self-cleaving ribozyme
# label = bin(measured self-cleavage), where bins are I = under 0.5, II = from 0.5 up to 1, III = 1 and over

mutation notation	label class
U130A C145U	III
A79G C128A	I
U132C G135A	III
C3U U87G	I
U9G U112C	II
G70U U119A	I
U23C A142U	III
G8A U47C	III
A22G U73A	III
G10U U112C	II
A24G C131U	III
A57G C71G	I
A79G G83U	I
A24G A124G	III
U104C G125U	III
A31C U132C	III
U91A U112C	II
C103A U112G	II
A65U C133U	I
C51A A67G	II
A31G G127C	III
A79G U96A	I
U52C U134A	III
C90U A107G	I
A64C U134C	II
G70C U108C	I
A64U A65G	I
A50U U100A	I
A30C C131G	III
A50G G89A	I
A22G G127U	III
U39A A92U	II
A77G U115C	III

Value source: the RNAGym collection of RNA variant scans (doi:10.7554/elife.90254)
